# system: Human recombinant MMP-9 (Homo sapiens, UniProt P14780)
# Construct: made in house; host or cells: MMP-9-transfected HT1080 cells (spent media)
# Sequence (P14780 107-707 limits assumed): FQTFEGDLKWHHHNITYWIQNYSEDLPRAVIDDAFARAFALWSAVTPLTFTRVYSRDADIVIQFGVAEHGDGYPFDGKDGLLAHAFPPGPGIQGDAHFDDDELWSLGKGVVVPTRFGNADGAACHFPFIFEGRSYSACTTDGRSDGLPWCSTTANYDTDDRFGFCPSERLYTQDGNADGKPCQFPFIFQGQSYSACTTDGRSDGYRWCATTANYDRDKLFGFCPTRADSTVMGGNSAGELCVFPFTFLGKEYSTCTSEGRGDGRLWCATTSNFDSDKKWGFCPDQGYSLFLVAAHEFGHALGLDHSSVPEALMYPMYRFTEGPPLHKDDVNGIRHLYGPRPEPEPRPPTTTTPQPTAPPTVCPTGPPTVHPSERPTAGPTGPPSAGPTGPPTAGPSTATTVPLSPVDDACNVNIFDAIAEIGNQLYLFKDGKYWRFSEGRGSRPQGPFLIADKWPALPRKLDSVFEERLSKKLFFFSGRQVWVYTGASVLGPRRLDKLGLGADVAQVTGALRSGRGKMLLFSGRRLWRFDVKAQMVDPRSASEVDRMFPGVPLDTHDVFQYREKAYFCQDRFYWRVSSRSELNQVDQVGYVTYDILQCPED
# assay-overview: In vitro MMP inhibition analysis (fluorogenic peptide substrate cleavage), Ki
# Format: biochemical
# conditions-used: Table 2
# Protocol: Several compounds and salts were analyzed in an in vitro assay to determine their ability to inhibit the MMP cleavage of peptide substrates. Inhibition constant (Ki) were calculated from the assayed compound-MMP interactions. […] The assays from which the Ki determinations were made were performed as follows. […] In the absence of MMP inhibitory activity, substrate (I) was cleaved at the Gly-Leu bond resulting in an increase of relative fluorescence. […]
parameter-measured: pKi
The read-out pKi is expressed as -log10 of concentration in moles per litre.

CC[C@@H](C)NC(=O)c1ccc(-c2ccc(S(=O)(=O)C3(C(=O)NO)CCOCC3)cc2)nc1; 7.11

Exercise: What value of pKi has been reported for the following compound? COCCOc1ccc(-c2ccc(S(=O)(=O)C3(C(=O)NO)CCN(CCOC)CC3)cc2)cc1
Solution: 8.91

Exercise: Also CCN1CCC(C(=O)NO)(S(=O)(=O)c2ccc(-c3ccc(Oc4ccccc4)cc3)cc2)CC1 ?
Solution: 8.00

Exercise: What about CCNc1cnc(-c2ccc(S(=O)(=O)C3(C(=O)NO)CCOCC3)cc2)cn1 ?
Solution: 8.31

Exercise: Also CC(C)CC#Cc1cnc(-c2ccc(S(=O)(=O)C3(C(=O)NO)CCOCC3)cc2)cn1 ?
Solution: 10.00

Exercise: Let us now turn to CO[C@H]1CC[C@](C(=O)NO)(S(=O)(=O)c2ccc(-c3cnc(CCC(F)(F)C(F)(F)F)cn3)cc2)CC1
Solution: 9.85

Exercise: Check O=C(NO)C1(S(=O)(=O)c2ccc(-c3cnccn3)cc2)CCOCC1 too.
Solution: 7.37

Exercise: CCCCc1ccc(-c2ccc(S(=O)(=O)C3(C(=O)NO)CCOCC3)cc2)cc1 , same question.
Solution: 9.58

Exercise: Check O=C(NO)C1(S(=O)(=O)c2ccc(-c3cnc4ccccc4n3)cc2)CCOCC1 too.
Solution: 5.90

Exercise: Follow-up entry: O=C(NO)C1(S(=O)(=O)c2ccc(-c3cnc(CCC(F)(F)C(F)(F)F)nc3)cc2)CCOCC1
Solution: 7.12

Exercise: Please give the result for O=C(NO)C1(S(=O)(=O)c2ccc(-c3cnc(NCC4CC4)cn3)cc2)CCOCC1 too.
Solution: 8.36

Exercise: And what about the compound CC(C)(C)CCNc1cnc(-c2ccc(S(=O)(=O)C3(C(=O)NO)CCOCC3)cc2)cn1 ?
Solution: 7.89

Exercise: O=C(NO)C1(S(=O)(=O)c2ccc(-c3cnc(-n4cccc4)cn3)cc2)CCOCC1 , same question.
Solution: 8.47

Exercise: Queued: O=C(NO)C1(S(=O)(=O)c2ccc(-c3cnc(OCC4CC4)cn3)cc2)CCOCC1
Solution: 9.72

Exercise: Item: CC(C)COc1cnc(-c2ccc(S(=O)(=O)C3(C(=O)NO)CCOCC3)cc2)cn1
Solution: 10.10

Exercise: Also COCCO[C@H]1CC[C@](C(=O)NO)(S(=O)(=O)c2ccc(-c3cnc(CCC(F)(F)C(F)(F)F)cn3)cc2)CC1 ?
Solution: 9.80

Cited source: patent US20060074243A1
